target: adrenergic α2 receptor; assay: adrenergic α2 receptor binding, [3H]clonidine in rat cerebral cortex; conditions: protocol of Canale et al., 2021
Property Name: Ki

// query Which Ki value is on record for CC(C)(C)c1ccc(OCCCN2CCCCC2)cc1 [DL76] ?
// result > 5 µM
